system.under.test: Glutamyl endopeptidase (Staphylococcus aureus)
Sequence (P0C1U8 whole entry): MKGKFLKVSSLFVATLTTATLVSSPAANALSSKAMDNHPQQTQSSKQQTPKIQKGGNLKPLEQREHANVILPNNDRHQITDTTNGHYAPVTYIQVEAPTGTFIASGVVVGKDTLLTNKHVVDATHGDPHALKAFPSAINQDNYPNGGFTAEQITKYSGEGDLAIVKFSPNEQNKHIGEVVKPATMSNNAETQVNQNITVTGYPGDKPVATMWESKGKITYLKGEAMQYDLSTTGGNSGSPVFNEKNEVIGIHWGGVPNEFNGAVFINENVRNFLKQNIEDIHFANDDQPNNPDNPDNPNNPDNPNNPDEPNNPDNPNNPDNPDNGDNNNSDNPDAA
observable: Ki (µM)
Kindly answer with a numeric value in µM, unit omitted.

Lab note: need Ki with Glutamyl endopeptidase (Staphylococcus aureus) for entry CC(C)(C)OC(=O)N[C@@H](CS(=O)(=O)NC(=O)c1ccc(C2(C(F)(F)F)N=N2)cc1)C(=O)NCCOCCOCCNC(=O)CCCC[C@@H]1SCC2NC(=O)NC21 (stereo partly specified) , please look it up.
162

Values were extracted from ChEMBL document CHEMBL1139284.
